# ASSAYED SYSTEM: HLA-B*51:01
# ASSAY OVERVIEW: IEDB peptide-MHC binding, purified MHC/competitive/radioactivity; filed as Kd, often an IC50 or EC50 that approximates it; bounds were set here for any values at or beyond the usual limits of such assays
# CONDITION DETAILS: source organism: Dengue virus 4 Dominica/814669/1981
RESULT TYPE: Kd

Asked: Form: Entry = FTVQADMGCV | System = HLA-B*51:01 | Kd = ____
Given back: ≥ 59.2 µM

###

# ASSAYED SYSTEM: HLA-A*11:01
# ASSAY OVERVIEW: IEDB peptide-MHC binding, purified MHC/competitive/radioactivity; filed as Kd, often an IC50 or EC50 that approximates it; bounds were set here for any values at or beyond the usual limits of such assays
# CONDITION DETAILS: source organism: Mammarenavirus machupoense
RESULT TYPE: Kd

Asked: Any idea what its Kd is? The sequence is SSFDYCGTDH
Given back: ≥ 69.7 µM

###

# ASSAYED SYSTEM: HLA-A*01:01
# ASSAY OVERVIEW: IEDB peptide-MHC binding, purified MHC/direct/fluorescence; filed as Kd, often an IC50 or EC50 that approximates it; bounds were set here for any values at or beyond the usual limits of such assays
# CONDITION DETAILS: source organism: Mycobacterium tuberculosis variant bovis BCG str. Pasteur 1173P2
RESULT TYPE: Kd (nM)
State just the number; it will be interpreted in nM.

Asked: Any idea what its Kd is? The sequence is DVAAMSGYY
Given back: 318

###

# ASSAYED SYSTEM: HLA-B*15:09
# ASSAY OVERVIEW: IEDB peptide-MHC binding, purified MHC/direct/fluorescence; filed as Kd, often an IC50 or EC50 that approximates it; bounds were set here for any values at or beyond the usual limits of such assays
# CONDITION DETAILS: source organism: Mycobacterium tuberculosis str. Haarlem
pKd: −log10 of the molar value.
RESULT TYPE: pKd

1. SPREECGVF : ≤ 4.70

Now look at this entry.
Asked: Any idea what its pKd is? The sequence is APAKKAAAK
Given back: ≤ 4.70

###

# ASSAYED SYSTEM: HLA-B*18:01
# ASSAY OVERVIEW: IEDB peptide-MHC binding, purified MHC/competitive/fluorescence; filed as Kd, often an IC50 or EC50 that approximates it; bounds were set here for any values at or beyond the usual limits of such assays
# CONDITION DETAILS: source organism: Orthohantavirus puumalaense
pKd: −log10 of the molar value.
RESULT TYPE: pKd

Asked: Any idea what its pKd is? The sequence is LRYGNVLDV
Given back: ≤ 4.70

###

# ASSAYED SYSTEM: HLA-A*02:06
# ASSAY OVERVIEW: IEDB peptide-MHC binding, purified MHC/competitive/fluorescence; filed as Kd, often an IC50 or EC50 that approximates it; bounds were set here for any values at or beyond the usual limits of such assays
# CONDITION DETAILS: source organism: Human immunodeficiency virus 1
RESULT TYPE: Kd (µM)
State just the number; it will be interpreted in µM.

Asked: Any idea what its Kd is? The sequence is LYNTIAVLY
Given back: 0.759

###

# ASSAYED SYSTEM: HLA-B*15:02
# ASSAY OVERVIEW: IEDB peptide-MHC binding, purified MHC/competitive/fluorescence; filed as Kd, often an IC50 or EC50 that approximates it; bounds were set here for any values at or beyond the usual limits of such assays
# CONDITION DETAILS: source organism: Homo sapiens
RESULT TYPE: pKd
Just the number, please; pKd means minus log10 of the concentration in mol/L.

Asked: Any idea what its pKd is? The sequence is FIKDGSSTY
Given back: 8.41
